Study the reported IC50 values for ERAP1 (Homo sapiens, UniProt Q9NZ08) given below; they originate from different publications.

Reference set (5 entries):
INSERT INTO results (compound, tested_on, experimental_value) VALUES
  ('O=C(O)c1ccc(C(F)(F)F)c(S(=O)(=O)Nc2cc(C(F)(F)F)ccc2N2CCCCC2)c1', 'ERAP1 (Homo sapiens, UniProt Q9NZ08)', '< 5 µM'),
  ('CCC1(O)CN(c2ccc(C(F)(F)F)cc2NS(=O)(=O)c2cc(C(=O)O)ccc2OC)C1', 'ERAP1 (Homo sapiens, UniProt Q9NZ08)', '> 5 µM'),
  ('COc1ccc(C(=O)O)cc1S(=O)(=O)Nc1cc(C(F)(F)F)ccc1OC1CCCCC1', 'ERAP1 (Homo sapiens, UniProt Q9NZ08)', '> 0.005 µM'),
  ('N#Cc1cc(NS(=O)(=O)c2cc(C(=O)O)ccc2C2CC2)c(-c2ccccn2)cc1F', 'ERAP1 (Homo sapiens, UniProt Q9NZ08)', '< 0.5 µM'),
  ('O=C(O)c1ccc(C2CC2)c(S(=O)(=O)Nc2cc(C(F)(F)F)ccc2-c2cccnc2)c1', 'ERAP1 (Homo sapiens, UniProt Q9NZ08)', '< 0.5 µM');

We now examine a further compound.
Query: Look up and report measured IC50 for this entry: `CO[C@H]1C[C@H](COc2cc(Cl)c(C#N)cc2NS(=O)(=O)c2cc(C(=O)O)ccc2C2CC2)C1`
Result: 0.001 to 0.005 µM
